experimental.system: CDK2/Cyclin A (Homo sapiens)
assay.procedure: Inhibition of CDK2/Cyclin A Retinoblastoma Kinase Activity
Type: biochemical
condition.context: read-out: % inhibition of CDK2 (@ 0.05 μM), compound at 0.05 μM
Cut-off 80% on inhibition at 0.05 µM, inclusive. At or above means rule met; below means rule not met.

>>> class("CC(=O)NC1CCN(CCCS(=O)(=O)N2CCC(Nc3nc(N)c(C(=O)c4c(F)cccc4F)s3)CC2)C1 (stereo not shown)")
"rule not met"
>>> class("Nc1nc(NC2CCN(S(=O)(=O)CCCN3CCC(F)(F)CC3)CC2)sc1C(=O)c1c(F)cccc1F")
"rule met"
>>> class("COC(=O)CN(C)CCCS(=O)(=O)N1CCC(Nc2nc(N)c(C(=O)c3c(F)cccc3F)s2)CC1")
"rule not met"
>>> class("Nc1nc(NC2CCN(S(=O)(=O)CCCNc3ccccn3)CC2)sc1C(=O)c1c(F)cccc1F")
"rule met"
